# SYSTEM UNDER TEST: HNF4alpha8 (COS-7 nuclear extract) (Homo sapiens, UniProt P41235-5 1-452)
# Sequence: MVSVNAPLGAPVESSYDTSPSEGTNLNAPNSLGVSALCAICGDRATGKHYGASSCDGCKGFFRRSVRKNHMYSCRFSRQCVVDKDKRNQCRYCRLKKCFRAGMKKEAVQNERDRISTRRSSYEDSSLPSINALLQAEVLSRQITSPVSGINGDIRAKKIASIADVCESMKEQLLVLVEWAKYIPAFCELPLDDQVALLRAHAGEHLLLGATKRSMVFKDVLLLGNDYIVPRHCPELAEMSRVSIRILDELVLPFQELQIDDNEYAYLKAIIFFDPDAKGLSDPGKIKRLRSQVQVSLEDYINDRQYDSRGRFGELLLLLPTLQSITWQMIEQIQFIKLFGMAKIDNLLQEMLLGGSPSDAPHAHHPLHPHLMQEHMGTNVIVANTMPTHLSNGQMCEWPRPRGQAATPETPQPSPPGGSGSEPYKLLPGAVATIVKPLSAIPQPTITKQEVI
# PROTOCOL TEXT: protein-binding microarray; COS-7 nuclear extract on double-stranded Agilent 4x180k PBM; binding buffer, salt, pH and temperature not given in the material; high values mean tight binding
# MEASUREMENT CONDITIONS: chain copies: 2; label: 3' end of strand 1 on the slide; dsDNA, one strand shown
Whole data set: some 18,000 sequences, median “log2 normalized intensity” near 0.36, cut for the highest 2% near 7.3. The entries come from a sample that favours the highest values as a whole.
Assign class by binding signal: not lower than 7 log2 normalized intensity means 1; lower than 7 log2 normalized intensity means 0.

Here are 5 sequences together with their reported answers.
>>> print(df.to_string())
                           residue_sequence                         system_under_test  classification
0  TTCCTGCATTAACATCAACATGGACTTTGAGCCTAGGGAGATTAGAGTATCGGTCGA  HNF4alpha8 (COS-7 nuclear extract) (Homo sapiens, UniProt P41235-5 1-452)               1
1  TGAAGCGACCCCTCGAGGCAACCTTTGACCGCCTAGGGAGATTAGAGTATCGGTCGA  HNF4alpha8 (COS-7 nuclear extract) (Homo sapiens, UniProt P41235-5 1-452)               1
2  CGACCCCTCGAGGCAACCTTTGACCTGGTAGCCTAGGGAGATTAGAGTATCGGTCGA  HNF4alpha8 (COS-7 nuclear extract) (Homo sapiens, UniProt P41235-5 1-452)               1
3  TGATAGCCATCTGGTGGACTTTGCTCTGCTGCCTAGGGAGATTAGAGTATCGGTCGA  HNF4alpha8 (COS-7 nuclear extract) (Homo sapiens, UniProt P41235-5 1-452)               1
4  TCCAAAATACGACCTTTGGACAGGGTGACGGCCTAGGGAGATTAGAGTATCGGTCGA  HNF4alpha8 (COS-7 nuclear extract) (Homo sapiens, UniProt P41235-5 1-452)               1

Request: State whether the measured binding signal reaches 7 log2 normalized intensity, counting equality as reaching it, for TTTTTGGCCTTTACCCCTTGAGTTTGAACTGCCTAGGGAGATTAGAGTATCGGTCGA
Result: 0

Request: State whether the measured binding signal reaches 7 log2 normalized intensity, counting equality as reaching it, for TTGGACTTTGTACATTCCAAATACGATAATGCCTAGGGAGATTAGAGTATCGGTCGA
Result: 0

// data source = paper PMC10726135
